# system name: Cytochrome P450 2D6 (Homo sapiens)
# assay info: qHTS Assay for Inhibitors and Substrates of Cytochrome P450 2D6 (AID 891); note: nearly all actives have a fitted effect of over 60% in size
# test settings: recombinant CYP2D6, luciferin-ME EGE luminescence; series mostly up to 11.4 µM
Results filed as inconclusive are left out. Calls of active or inactive are those of the source. Calls come from the whole dose curve; as a rule, active = well fitted inhibition curve with a large enough effect; inconclusive = small, poorly fitted or top-dose-only effect; inactive = no such curve, though single readings can be large or run the other way.
Possible outcomes: y (active), n (inactive)

- molecule: "CCCCn1cnc2c(c(CC#N)nn2-c2ccccc2)c1=N"
  system name: "Cytochrome P450 2D6 (Homo sapiens)"
  cat: "y"
- molecule: "NC(N)=N/N=C(/c1ccccc1)c1ccc(O)cc1O"
  system name: "Cytochrome P450 2D6 (Homo sapiens)"
  cat: "y"
- molecule: "CCc1cccc2c3c([nH]c12)[C@](CC)(CC(=O)O)OCC3"
  system name: "Cytochrome P450 2D6 (Homo sapiens)"
  cat: "n"
